biological target: T1, biotinylated CD3 epsilon:delta heterodimer protein (Amsbio AMS.CDD-H52WO) (Homo sapiens (Human), UniProt P07766 23-126; P04234 22-105); test: BLI (Octet), CD3 on SA sensor, Fab analyte;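 note: fab analyte at several concentrations up to 300 nM, association 100 s then 300 s dissociation in buffer, biosensors blocked with biocytin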
T1 construct: also called CD3 heterodimer
measure: kon (M⁻¹ s⁻¹)

INSERT INTO results (binder, measure, observed) VALUES
  ('huSP34.36.10 Fab-HF (Fab, V domains shown, also called HC36+LC10) VH: EVQLVESGGGLVQPGGSLRLSCAASGFTFNDYAMNWVRQAPGKGLEWVGRIRSKYNNYATYYAASVKGRFTISRDDSKNSLYLQMNSLKTEDTAMYYCVRHGNFGHSYVSWFAYWGQGTLVTVSS VL: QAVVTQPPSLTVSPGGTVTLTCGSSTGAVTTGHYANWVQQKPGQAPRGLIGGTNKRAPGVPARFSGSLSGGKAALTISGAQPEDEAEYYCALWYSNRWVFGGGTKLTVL', 'kon', '1.6e+06');

Source listed as patent US20230056252A1.
